# assay-name: IN Cell qHTS Assay for Inhibitors of the mTORC1 Signaling Pathway in MEF (Tsc2-/-, p53-/-) Cells: Sytravon; further: nearly all actives have a fitted effect of over 60% in size; further: potency means the concentration at half of the fitted maximal effect
# reported-conditions: phospho-rpS6 immunofluorescence, 24 h; series mostly up to 38.3 µM
Hit rate of the full screen: of about 2,100 compounds, about 210 (10%) were called active. Inconclusive results (about 53%) are left out. This is one part of the list.
experimental-endpoint: Potency

In the examples that follow, each entry is paired with its recorded Potency.
INSERT INTO assay_data (compound, experimental_endpoint, reported_value) VALUES
  ('CCc1ccc(NC(=O)C2CCCN(S(=O)(=O)c3c(C)noc3/C=C/N(C)C)C2)cc1 (stereo unspecified)', 'Potency', 'inactive'),
  ('CCOc1ccc(-c2cc(NC(=O)c3ccc(C)cc3)c(C(=O)OC)s2)cc1', 'Potency', 'inactive'),
  ('Cc1ccc2[nH]c(=O)c3cc(C(=O)NCCCN4CCC(C)CC4)sc3c2c1', 'Potency', '5.85 µM (active)'),
  ('O=C(NCCc1csc(-c2cccnc2)n1)c1cccc(C(F)(F)F)c1', 'Potency', 'inactive'),
  ('COc1cc(NC(=O)Cn2nc(C(F)(F)F)c3c2CCCC3)c(OC)cc1Cl', 'Potency', 'inactive');

# input compound: CCCN(CCC)CC(O)Cn1cc(/C=C/C(=O)c2ccc(OCC)cc2)c2ccccc21 (stereo unspecified) ; wanted: its Potency
14.7 µM (active)
